tested on: SK-OV-3 ovarian; assay: NCI tumour cell line growth inhibition, 48 h
Quantity measured: TGI

CC(=O)OC1CN2CCC1CC2 (centres undefined)    > 100 µM
O=S1c2ccccc2N=C(c2cccc3ccccc23)CC1c1cccc2ccccc12 (centres undefined)    > 100 µM
O=C(/C=C/c1ccc2ccccc2c1)NCc1ccc(C(=O)NCc2ccccc2)cc1    > 100 µM

**Query** Report TGI for `O=C1/C=C/[C@@H](O)[C@@H]2C[C@@H](O)C[C@H]2/C=C/CCC[C@H](CCOCc2ccccc2)O1` please.
**Result** > 100 µM

**Query** Report TGI for `CN(C)CCn1c(=O)c2ccc(NCCCN(C)CCCNc3ccc4c(=O)n(CCN(C)C)c(=O)n5c6ccccc6c(=O)c3c45)c3c(=O)c4ccccc4n(c1=O)c23` please.
**Result** 2.43 µM

**Query** Report TGI for `O=C(Nc1ccc(Cl)cc1)c1cc2c(cc1Cl)SC(NNCCO)=NS2(=O)=O` please.
**Result** > 100 µM

**Query** Report TGI for `C=CCN1C(=O)c2cccc3c(N4CCOCC4)ccc(c23)C1=O` please.
**Result** 0.667 µM

**Query** Report TGI for C=C1CC(C)(COc2ccc3c(C)c(C)c(=O)oc3c2C)OC1=O (centres undefined) please.
**Result** 12.2 µM

---

test system: SK-MEL-28 melanoma; assay: NCI tumour cell line growth inhibition, 48 h
Quantity measured: TGI (µM)
Numbers only here, please. The scale is µM.

Worked examples, 3 molecules total:
CCOc1cc(F)c([N+](=O)[O-])cc1[N+](=O)[O-]    6.12
CC1(C)Cc2c(cnn2-c2ccc(C(F)(F)F)cc2)-c2nc(-c3ccc(O)cc3)[nH]c21    30.9
C=C(Cl)C(Cl)(CBr)CCCC(C)(C)Cl (stereo not given)    25.4

**Query** Can you look up TGI on SK-MEL-28 melanoma for `C[C@H](C(=O)C12CC3CC(CC(C3)C1)C2)[C@H](O)c1ccccc1` ?
**Result** 31.4

---

system: EKVX NSCLC; test: NCI tumour cell line growth inhibition, 48 h
Quantity measured: TGI (µM)
Numbers only here, please. The scale is µM.

Worked examples, 2 compounds total:
C=C1CC2(CC(c3ccccc3OC)OC(c3ccccc3OC)C2)OC1=O (stereo unspecified)    27.7
CC1(C)Cc2c(cnn2-c2ccc(C(F)(F)F)cc2)-c2nc(-c3ccc(O)cc3)[nH]c21    42.9

Query compound follows.
**Query** Report TGI for `C#Cc1cc(-c2nc3ccccc3s2)ccc1N` please.
**Result** 65

---

test system: SK-OV-3 ovarian; test: NCI tumour cell line growth inhibition, 48 h
Property: TGI; scope: individual compounds

**Query** Report TGI for `CSc1nc(-c2cc3ccccc3o2)cc(-c2ccc(Cl)cc2)c1C#N` please.
**Result** 56.8 µM

**Query** Report TGI for `COc1nc(N)c(N=O)c(OCc2ccccc2)n1` please.
**Result** > 10 µM

**Query** Report TGI for `NS(=O)(=O)c1ccc(NC(=S)/N=C/c2c(O)c3ccccc3oc2=O)cc1` please.
**Result** > 100 µM

**Query** Report TGI for `O=c1[nH]cnc2c1sc(=S)n2-c1ccccc1` please.
**Result** > 100 µM

**Query** Report TGI for `C/C=C(/C)C(=O)O[C@H]1CCN2CC=C(COC(=O)[C@@](O)([C@H](C)OC)C(C)(C)O)[C@H]12` please.
**Result** > 100 µM

**Query** Report TGI for CCOC(=O)[C@H]1O[C@@H]1C(=O)NC(CC(C)C)C(=O)NCCC(C)C (stereo partly specified) please.
**Result** > 100 µM
